Origin of measurements: patent US20260022165A1

# system_tested: T1, hFc-hC3d fusion protein (human, UniProt P01024 1002-1303, limits assumed)
# T1 construct: domain: C3d; also called immobilized hC3d; not shown: human IgG Fc (hFc), captured by an anti-human IgG CH2 / Fcγ mAb
# protocol_summary: SPR (Biacore X100), Fab over captured hFc-hC3d
# Description: Kinetic and thermodynamic parameters characterizing the binding of purified Fabs to hC3d or mC3d was performed by surface plasmon resonance (SPR) in a Biacore X100 instrument (GE Healthcare). Using mouse anti-human IgG CH2 mAb immobilized on a CM5 sensor chip, hFc-hC3d or hFc-mC3d fusion proteins were captured at a density <400 RU. Each sensor chip included an empty flow cell for instantaneous background subtraction. […]
readout_label: Kd (nM)
Enter your answer as a number in nM; do not include the unit.

The examples below pair each entry with its known result.
binder	readout_label	recorded_number
Ab4 Fab (His-tagged rabbit/human chimeric anti-C3d Fab) (Fab, V domains shown, Fab with rabbit Vκ/human Cκ/rabbit VH, His-tagged; also called Ab4 (κ)) VH: QSLEESGGRLVTPGTPLTLTCTVSGFSLSRYTMAWVRQAPGKGLEYIGWIDSSGSTYYASWAKGRFTISKTSSTTVDLKMTSLTTEDTATYFCASGNDGGDPLYYGMDPWGPGTLVTVSS VL: DGVMTQTPSSTSAAVGGTVTIKCQASQSIRSWLSWYQQKPGQPPKLLIYEASKLASGVPSRFKGSRSGTEYTLAISGVQREDAATYYCLGSIASDDTAFGAGTNVEIK	Kd	3.1
Ab5 Fab (His-tagged rabbit/human chimeric anti-C3d Fab) (Fab, V domains shown, Fab with rabbit Vκ/human Cκ/rabbit VH, His-tagged; also called Ab5 (κ)) VH: QSLEESGGRLVTPGTPLTLTCTVSGFSLSTYTLGWVRQAPGKGLEYIGWIDSSGSAYYASWAKGRFTISKASSTTVDLKMAGLTTEDTATYFCASGNTGGDPLYYGMDPWGPGTLVTVSS VL: DPVLTQTPSSTSAAVGGTVTIKCQASQNIGRWLAWYQQKPGQPPKLLIYRASDLASGVPSRFKGSGSGTQFTLTISGVQREDAATYYCLGSYSSSDSAFGGGTEVVVK	Kd	0.99
Ab2 Fab (His-tagged rabbit/human chimeric anti-C3d Fab) (Fab, V domains shown, Fab with rabbit Vκ/human Cκ/rabbit VH, His-tagged; also called Ab2 (κ)) VH: QSVEESGGRLVTPGTPLTLTCTVSGFSLSSYAMTWVRQAPGKGLEWIGVIGTSGMRYYANWAKGRFTISKTSTTVDLKITSPTTEDTATYFCARANFYVGNDESTDAFDPWGPGTLVTVSS VL: ALVMTQTPPSLSASVGETVRIRCLASEDIYNTISWYQQKPGKPPTLLIYGASNLKSGVPPRFSGSGSGTDYTLTIGGVQSEDAATYYCLGGYSYSSTGLTFGAGTKVEIK	Kd	3.35

**Query** Please look up its Kd: Ab3 Fab (His-tagged rabbit/human chimeric anti-C3d Fab) (Fab, V domains shown, Fab with rabbit Vκ/human Cκ/rabbit VH, His-tagged; also called Ab3 (κ)) VH: QKQLVESGGRLVTPGGSLTLTCTISGIDLNTYGMTWVRQAPGKGLEYIGIIVSSGNTYYANWAQGRFTISKTSTTVDLKMTSLTASDTATYFCARGLGRAYSSGYGMDGWGPGTLVTVSS VL: DPVLTQTPSSTSAAVGGTVTIKCQASQNIYTSLAWYQQKPGQPPKLLIYGASNLASGVPSRFKGSRSGTEYTLTISGVEREDAATYYCLGSYTQIDTTFGGGTKLEIK
**Result** 13.3
